TARGET: DNA polymerase beta (Mus musculus, UniProt Q8K409)
METHOD: Ability to inhibit mouse beta DNA polymerase
STUDY_CONDITIONS: read-out: IC50
ASSAY_ENDPOINT: IC50 (µM)

# query: IC50 of entry COC1/C=C/OC2(C)Oc3c(C)c(O)c4c(O)c(c(/C=N/N5CCN(N)CC5)cc4c3C2=O)NC(=O)/C(C)=C\C=C\C(C)C(O)C(C)C(O)C(C)C(OC(C)=O)C1C (centres undefined) 16

# query: IC50 of entry COC1/C=C/OC2(C)Oc3c(C)c(O)c4c(O)c(c(/C=N/NC5CCCCCCCCCCCCCC5)cc4c3C2=O)NC(=O)/C(C)=C\C=C\C(C)C(O)C(C)C(O)C(C)C(OC(C)=O)C1C (centres undefined) 15

1. COC1/C=C/OC2(C)Oc3c(C)c(O)c4c(O)c(c(/C=N/N5CCCCCCCCCCCCCCC5)cc4c3C2=O)NC(=O)/C(C)=C\C=C\C(C)C(O)C(C)C(O)C(C)C(OC(C)=O)C1C (stereo in doubt; 18)
2. CCCCCN(CCCCC)/N=C/c1cc2c3c4c(C)c(O)c2c(O)c1NC(=O)/C(C)=C\C=C\C(C)C(O)C(C)C(O)C(C)C(OC(C)=O)C(C)C(OC)/C=C/OC(C)(O4)C3=O (centres undefined)
From the items above, decide which of 1 and 2 has the lower IC50 reading. Answer = label. 1
(1: 22 µM, 2: 48 µM)

Each recorded value in this set is attributed to ChEMBL document CHEMBL1121400.
